src = PubChem BioAssay (NCI)

- System: SF-268 CNS
- method: NCI-60 one-dose screen, 48 h (100 = growth as untreated, 0 = no growth, -100 = all killed)
- condition_info: 10 µM
This is part of a sample that, as a whole, favours compounds with a hit. Of some 83,000 tested, about 20% had one in any assay.

compound	growth, %
CCCCCCCCCCCCCCCCCCOCC(COCCOCC[N+]1(CCCCCC(=O)[O-])CCCC1)Oc1ncccn1 (centres undefined)	32.6
Cc1ccc2oc3nc(C)c(C(=O)NCc4ccccc4)cc3c(=O)c2c1	95.3
ClC(Cl)(Cl)c1nc2nccnc2[nH]1	113
Cn1c(C(N)=O)cc2c1-c1nc(Nc3ccccc3)ncc1CCC2	47.8
COc1cc(/C=C2\Oc3cc(OCC(=O)c4ccccc4)ccc3C2=O)cc(OC)c1OC	105
CN(C)N=Nc1nn(C(=O)Nc2ccc(Cc3ccccc3)cc2)c2ccccc12	63.5
Clc1cccc(-c2nc(-c3cccs3)no2)c1	106
Nc1nccc(Nc2ccccc2)n1	109
O=C(Nc1cccc(-n2cc(-c3ccncc3)c(-c3ccc(O)c(Cl)c3)n2)c1)c1ccc(Cl)c(Cl)c1	74.1
Nc1nc(Nc2ccccc2)n[nH]1	112
c1ccc(CSc2nnc3c4c5c(sc4nc(-c4cccnc4)n23)CCCCCC5)cc1	57
COc1cc([C@@H]2c3cc4c(cc3C(Br)[C@H]3COC(=O)[C@H]23)OCO4)cc(OC)c1OC (some centres undefined)	-29.9
COc1ccc(-c2cc(-c3ccc(N(C)C)cc3)c(C#N)c(N3CCCC3)n2)cc1	96.7
COc1ccc(Nc2ncnc3c2c(SC)nn3-c2ccccc2)cc1	95.1
O=C(Nc1ccncc1)C(=O)c1cn(S(=O)(=O)c2cccc3ccccc23)c2ccccc12	107
O=C(C[n+]1ccccc1)c1ccc2ccccc2c1	103
CCCCCCCNc1nc(C=O)ncc1-c1ccc(C(F)(F)F)cc1	98.8
COc1ccc(-c2ccc3cc(C(=O)Nc4ccc(O)c(C(=O)/C=C/c5cc(OC)c(OC)c(OC)c5)c4)ccc3c2)cc1	105
Cc1cc(N(CCCNc2ccnc3cc(Cl)ccc23)Cc2cccs2)nc(Cl)n1	61.9
COc1ccc(/C=C2/CN(C(=O)c3ccccc3F)C/C(=C\c3ccc(OC)cc3)C2=O)cc1	51.5
CN(C)CCN1C(=O)c2cccc3cc(N)cc(c23)C1=O	37.8
CCOC(=O)N1C/C(=C/c2ccc(F)cc2)C(=O)/C(=C/c2ccc(F)cc2)C1	-12
O=C(Nc1ccc(Cl)c([N+](=O)[O-])c1)Nc1nc2ccccc2s1	106
COc1cccc(C2C3=C(COC3=O)N(CCO)c3cc(OC)ccc32)c1 (centres undefined)	31.6
CC(C)N(CCNc1nc(C(Cl)(Cl)Cl)nc2cc(Cl)ccc12)C(C)C	0.341
O=C(Nc1ccncc1)C(=O)c1cn(S(=O)(=O)c2ccc(F)cc2)c2ccccc12	47.9
CCOC(=O)N/N=C\C(C)=N\NC(=O)OCC	105
COc1ccc(C2CC(c3ccc(N(C)C)cc3)=NN2c2ccc(S(N)(=O)=O)cc2)cc1 (centres undefined)	59.6
CCCCN(CCCC)c1cc(C(=O)CCCCCN)c2ccccc2n1	-58

* * *

- System: MDA-MB-231 breast
- method: NCI-60 one-dose screen, 48 h (100 = growth as untreated, 0 = no growth, -100 = all killed)
- condition_info: 10 µM
- Procedure: Cells are grown in 96 well plates and exposed to the test compound for 48 hours. Compounds are tested at a single concentration, which is 10^-5 M for most compounds. The reported endpoint is percent growth (GI% or GIPRCNT), where numbers from 0 - 100% represent growth inhibition, and numbers from -100% - 0 represent cell death. For example, a value of 40 represents 60% growth inhibition. A value of 0 means no net growth occurred over the course of the experiment. […]
About 83,000 compounds went through this panel and 20% of them were active in at least one assay; those are over-represented in the sample as a whole.

structure_string	unit_spec	growth
CCN(CC)CCSCCN(CC)CC	%	118
COc1cc(/C=N/NC(=O)c2ccccc2Nc2ccnc(C(F)(F)F)c2)ccc1O	%	112
COc1ccc(OC)c(/C=C/c2nc(SCc3ccccc3)n(-c3ccc(Cl)cc3)n2)c1	%	67.1
